system: OVCAR-3; experiment: NCI tumour cell line growth inhibition, 48 h
Structures can show the parent of a compound that is named as a salt. The source made the active and inactive calls. Cut-off read from the data, not from the text of the source: active = GI50 up to about 1.1 µM and inactive = higher.
observed property: GI50

Examples from the recorded data:
>  <compound>
CCOP(=O)(OCC)/C(=C\N1C(=O)CC(=O)NC1=S)C(=O)OC

>  <observed property>
GI50

>  <experimental value>
> 100 µM (inactive)

$$$$
>  <compound>
NCCSSCCN [CYSTAMINE HYDROCHLORIDE]

>  <observed property>
GI50

>  <experimental value>
> 100 µM (inactive)

$$$$
>  <compound>
COc1ccc(/C=N/n2cnc3c(c2=O)SC(=C(C#N)C#N)N3c2ccccc2)cc1

>  <observed property>
GI50

>  <experimental value>
> 100 µM (inactive)

$$$$
>  <compound>
O=C(Nc1cccc(-c2cn3ccccc3n2)c1)c1ccncc1

>  <observed property>
GI50

>  <experimental value>
35.1 µM (inactive)

$$$$

For every item below, please supply its GI50.
1. COC(=O)[C@](C)(Cc1ccccc1)NC(=O)[C@@H](C)N1[C@@H](c2ccccc2)COC1(C)C
2. CN1CCC2(CC1)C(=O)N(NC(N)=O)C(=O)C2c1ccccc1 (stereo not given)
3. O=C1CCC(=O)N1Cc1ccccc1/N=[N+](\[O-])c1ccccc1CN1C(=O)CCC1=O

Found:
["37.6 µM (inactive)", "> 100 µM (inactive)", "> 100 µM (inactive)"]
